biological target: T1, cynomolgus monkey CD8A on primary cynomolgus monkey CD8+ T cells (cynomolgus monkey, UniProt P01732 23-235 (human entry)); assay: flow cytometry, cyno CD8+ T cells, 2 uM FN3
T1 construct: also called Cyno CD8alpha
T1 sequence (P01732 other isoform, or with tags, fused parts or gaps limits assumed): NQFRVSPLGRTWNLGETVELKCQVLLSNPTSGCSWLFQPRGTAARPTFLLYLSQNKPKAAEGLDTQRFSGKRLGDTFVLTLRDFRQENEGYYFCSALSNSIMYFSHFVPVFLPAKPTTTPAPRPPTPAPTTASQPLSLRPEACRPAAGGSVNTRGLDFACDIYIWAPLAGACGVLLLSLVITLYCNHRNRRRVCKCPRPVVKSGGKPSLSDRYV
measuredEndpoint: Cyno T-cell Binding 2 uM (MFI)
Numeric only. Scale: MFI

// worked examples, Cyno T-cell Binding 2 uM (MFI) included
binder	Cyno T-cell Binding 2 uM (MFI)
P282ER9P1360_A9 (designed binder, FN3 domain) LPAPKNLVVSRVTEDSARLSWTAPDAAFDSFGILYYEPVDSGEAITLPIPGSERSYDLTGLKPGTEYWVVITGVKGGAPSTPLGAIFTT	64700
P283AR9P1362_H11 (designed binder, FN3 domain) LPAPKNLVVSRVTEDSARLSWPKIQGQHFDSFLIQYQESEKVGEAIVLTVPGSERSYDLTGLKPGTEYTVSIYGVDVKYDIDSRPISSNPLSAIFTT	11600
P282CR9P1358_F11 (designed binder, FN3 domain) LPAPKNLVVSRVTEDSARLSWTAPDAAFDSFLIAYPEWPIFEGEAIVLTVPGSERSYDLTGLKPGTEYFVVIYGVKGGEQSSPLSAIFTT	62400
P282DR9P1359_G7 (designed binder, FN3 domain) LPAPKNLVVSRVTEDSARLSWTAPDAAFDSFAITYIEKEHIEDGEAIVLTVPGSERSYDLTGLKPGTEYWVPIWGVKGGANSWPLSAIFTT	69100
P282BR9P1357_D12 (designed binder, FN3 domain) LPAPKNLVVSRVTEDSARLSWGQYITAFSFDSFLIQYQESEKVGEAIVLTVPGSERSYDLTGLKPGTEYTVSIYGVDVAWFQGKPTWSNPLSAIFTT	40400

Consider the binder P282ER9P1360_C4 (designed binder, FN3 domain) LPAPKNLVVSRVTEDSARLSWTAPDAAFDSFGITYYEPNHGGEAISLSVPGSERSYDPTGLKPGTEYWVVITGVKGGAPSTPLGAIFTT and give its measured Cyno T-cell Binding 2 uM (MFI).
33400

Using the record for P283AR9P1362_D7 (designed binder, FN3 domain) LPAPKNLVVSRVTEDSARLSWVKRATSFDSFLIQYQESEKVGEAIVLTVPGSERSYDLTGLKPGTEYTVSIYGVDVKYDIDSRPISSNPLSAIFTT , report its Cyno T-cell Binding 2 uM (MFI).
27500
